- METHOD NOTES: Displacement of [3H]strychnine from Wistar rat glycine receptor in spinal cord membrane in presence of 10 uM glycine
- Type: cell membranes
MEASUREMENT LABEL: pIC50
One number for each entry, as −log10 of the molar value.

# pIC50 lookup, item O=C(OC1CC2CCC(C1)N2)c1c[nH]c2ccccc12 (stereo unspecified)
8.03

----------
- Species: Rattus norvegicus
- METHOD NOTES: Displacement of [3H]strychnine from Wistar rat glycine receptor in spinal cord membrane
- Type: cell membranes
Mark criterion met for reported K of 8 µM or greater; mark criterion not met for anything smaller.

> print(dat)
                                   compound        label.class
1  O=C(O[C@H]1C[C@H]2CC[C@@H](C1)N2)C1c2ccccc2Oc2ccccc21  criterion not met

Hi team, for CN1[C@@H]2CCC[C@H]1C[C@H](OC(=O)/C=C/C(=O)O[C@@H]1C[C@H]3CCC[C@@H](C1)N3C)C2 , is the recorded K at or above 8 µM?
criterion met

Hi team, for O=C(OC1CC2CCC(C1)N2)c1c[nH]c2ccccc12 (stereo unspecified) [NORTROPISETRON] , is the recorded K at or above 8 µM?
criterion not met

Hi team, for CN1[C@@H]2CC[C@H]1C[C@@H](OC(=O)/C=C/C(=O)O[C@H]1C[C@H]3CC[C@@H](C1)N3C)C2 , is the recorded K at or above 8 µM?
criterion not met

Hi team, for CN1[C@@H]2CC[C@H]1C[C@H](OC(=O)c1cccnc1)C2 , is the recorded K at or above 8 µM?
criterion not met

Hi team, for O=C(O[C@@H]1C[C@H]2CC[C@@H](C1)N2)c1cccnc1 , is the recorded K at or above 8 µM?
criterion not met

Hi team, for CN1[C@@H]2CC[C@H]1C[C@H](OC(=O)c1ccc(C(=O)O[C@H]3C[C@H]4CC[C@@H](C3)N4C)cc1)C2 , is the recorded K at or above 8 µM?
criterion met

Hi team, for CN1[C@@H]2CC[C@H]1C[C@H](OC(=O)c1cccc(C(=O)O[C@H]3C[C@H]4CC[C@@H](C3)N4C)c1)C2 , is the recorded K at or above 8 µM?
criterion not met

Hi team, for CN1[C@@H]2CC[C@H]1C[C@H](OC(=O)c1ccc(Cl)nc1)C2 , is the recorded K at or above 8 µM?
criterion not met

Hi team, for CCN1[C@@H]2CC[C@H]1C[C@@H](OC(=O)CCC(=O)O[C@H]1C[C@H]3CC[C@@H](C1)N3CC)C2 , is the recorded K at or above 8 µM?
criterion met
